# Measurement description: Cmax in Kunming mouse at 10 mg/kg, po measured upto 24 hrs by LC-MS analysis
# Assay type: ADME, organism-based
# Parameters: time < 24 hrs, dose 10 mg/kg, route po
# Conditions: in vivo
Experimental readout: Cmax (ng/mL)
# output: bare number, implied unit ng/mL

Given the molecule "OCCN(CCO)c1nccc(-n2cncn2)n1" , what is its reported Cmax? 2130

* * *

# Measurement description: Cytotoxicity against human L02 cells assessed as cell viability upto 0.128 mmol/L measured after 24 hrs by MTT assay relative to control
# Format: toxicity, cell-based
# Conditions: up to 0.128 mM, read-out: Activity
Experimental readout: viability at 24 h (%)
# output: bare number, implied unit %

Given the compound "OCCN(CCO)c1nccc(-n2cncn2)n1" , what is its reported viability at 24 h? 85
